Listing: activity (normalised, proliferation) of selected molecules
assay: qHTS profiling of inhibitors of Plasmodium falciparum (HB3) proliferation (acoustic dispense); details: P. falciparum HB3 in erythrocytes, SYBR Green, 72 h; at 49.8 µM (top of the series) unless noted
Answer format: numeric, % implied, no suffix.

Please review the following examples before continuing.
C[C@@H](Oc1ccc2[nH]nc(C=Cc3cnn(CCO)c3)c2c1)c1c(Cl)cncc1Cl: 1.95
C#Cc1cccc(Nc2ncnc3cc(OC)c(OCCCCCCC(=O)NO)cc23)c1: -0.996
CCCCN(CCCC)CC(O)c1cc(Cl)cc2c1-c1ccc(Cl)cc1C2=Cc1ccc(Cl)cc1 (stereo not given): -1.5
Cc1nc2cnc3ccc(C#Cc4cccnc4)cc3c2n1-c1ccc(C(C)(C)C#N)cc1: 1.13

Requested field: activity (normalised, proliferation). Item: Cn1cnc(=N)c2[nH]cnc21
1.41

Give its activity (normalised, proliferation) value. Item: CCN[C@H]1C[C@H](C)S(=O)(=O)c2sc(S(N)(=O)=O)cc21
37.3

Fill in: activity (normalised, proliferation) of COc1cc(C)c2c(Oc3cccc(C(F)(F)F)c3)c(OC)cc(NCCCC(C)N)c2n1 (stereo not given) is ___
-2.19

Recorded activity (normalised, proliferation) of CC[C@H]1CN2CCc3cc(OC)c(OC)cc3[C@H]2C[C@@H]1C[C@@H]1NCCc2cc(OC)c(OC)cc21 , please.
-0.337

Fill blank: measured activity (normalised, proliferation) of the molecule Cc1ccc([N+](=O)[O-])cc1S(=O)(=O)N(C)N=Cc1cnc2ccc(Br)cn12 is ____.
13.3

---

experiment: qHTS profiling of inhibitors of Plasmodium falciparum (HB3) proliferation (acoustic dispense); settings: P. falciparum HB3 in erythrocytes, SYBR Green, 72 h; at 49.8 µM (top of the series) unless noted
MEASURED PARAMETER: activity (normalised, proliferation)

Here's what some known entries look like.
CCCCN(CCCC)CCC(O)c1cc2c(Cl)cc(Cl)cc2c2cc(C(F)(F)F)ccc12 (stereo not drawn): -0.0223% [at 23.2 µM]
CCN(CC)Cc1cc(Nc2ccnc3cc(Cl)ccc23)ccc1O: -0.453% [at 23.2 µM]
Cc1nc2c(C#N)cccc2n1-c1ccc(C(=O)NC2CC2)s1: 1.48%
Cc1[nH]c2ccccc2c1CCNCc1ccc(C=CC(=O)NO)cc1: -2.24%
CS[C@H]1SC[C@@H]2C(=O)N(C)[C@H](C(C)C)C(=O)OC[C@H](NC(=O)c3cnc4ccccc4n3)C(=O)N[C@H](C)C(=O)N(C)[C@@H]1C(=O)N(C)[C@H](C(C)C)C(=O)OC[C@H](NC(=O)c1cnc3ccccc3n1)C(=O)N[C@H](C)C(=O)N2C: 1.22%
O[C@H](c1cc(C(F)(F)F)nc2c(C(F)(F)F)cccc12)[C@H]1CCCCN1: 3.25% [at 23.2 µM]

Fill in the blank: the reported activity (normalised, proliferation) of CC(C)Oc1cc(Nc2nc(N[C@@H](C)c3ccc(F)cn3)ncc2Cl)[nH]n1 is ____.
2.89%

Entry C[C@H]1[C@@H](OC(=O)CCC(=O)O)O[C@@H]2O[C@@]3(C)CC[C@@H]4[C@H](C)CC[C@@H]1[C@@]24OO3 has what activity (normalised, proliferation)?
-0.479%

---

experiment: qHTS profiling of inhibitors of Plasmodium falciparum (HB3) proliferation (acoustic dispense); conditions: P. falciparum HB3 in erythrocytes, SYBR Green, 72 h; at 49.8 µM (top of the series) unless noted
MEASURED PARAMETER: activity (normalised, proliferation) (%)
Give a bare numeral; the unit % is implied.

The following compounds have reported results that may help.
FC(F)c1nc2ccccc2n1-c1nc(N2CCOCC2)nc(N2CCOCC2)n1: 25.3
COc1cc(NC(C)CCCN)c2ncccc2c1 (configuration not stated): 0.241
C1CCC(C(CC2CCCCN2)C2CCCCC2)CC1 (configuration not stated): -0.0393
CC(C)n1nc(-c2ccc3oc(N)nc3c2)c2c(N)ncnc21: -0.709
C[C@@H]1CCC2[C@@H](C)[C@@H](O)O[C@@H]3O[C@@]4(C)CC[C@@H]1[C@@]23OO4 (some centres not stated): -0.43

Sample CCC(=O)N1CCN(c2ccc(-n3c(=O)ccc4cnc5ccc(-c6cnc7ccccc7c6)cc5c43)cc2C(F)(F)F)CC1 — what was its activity (normalised, proliferation)?
0.244

Returns the measured activity (normalised, proliferation) for the input compound. Input: C=C[C@@H]1CN2CC[C@@H]1C[C@H]2[C@H](O)c1ccnc2ccc(OC)cc12
0.317

Which activity (normalised, proliferation) is listed for Cn1cc(C2=C(c3c4n(c5ccccc35)CCC(CN)C4)C(=O)NC2=O)c2ccccc21 (configuration not stated) ?
-0.862

---

Assay: qHTS profiling of inhibitors of Plasmodium falciparum (HB3) proliferation (acoustic dispense)
Settings: P. falciparum HB3 in erythrocytes, SYBR Green, 72 h; at 49.8 µM (top of the series) unless noted
Method: Plasmodium falciparum is a virulent malarial parasite that kills 1-2 million people worldwide each year. […] Because mature erythrocytes lack DNA, only Plasmodium-derived DNA is detected. The SYBR Green viability assay was adapted from a method described previously (Plouffe et al., 2008). […] The following morning, fluorescence intensity at 485(14) nm excitation and 535(25) nm emission wavelengths was measured on an EnVision (Perkin Elmer) plate reader. […]
# key: entry, value: activity (normalised, proliferation)
Give a bare numeral; the unit % is implied.

CC1(C)N=C(N)N=C(N)N1c1ccc(Cl)cc1: -0.199
OB1OCc2cc(F)ccc21: 0.13
CCn1nnc2c(N3CCOCC3)nc(-c3ccc(NC(=O)Nc4ccc(C(=O)N5CCN(C)CC5)cc4)cc3)nc21: 4.68
Cn1c2ccccc2c2c3c(c4c5ccccc5n(CCC#N)c4c21)CNC3=O: 106
CCCC[C@@H]1C[C@@H](C(=O)NC([C@H](C)Cl)[C@H]2O[C@H](S)[C@H](O)[C@@H](O)[C@@H]2O)N(C)C1 (some centres undefined): 3.44

Look up activity (normalised, proliferation) for this compound: CCC[C@H](Nc1nc(-c2ccc(NC(=O)NCC)c(OC)c2)ncc1C)c1cccnc1
-0.168

---

assay: qHTS profiling of inhibitors of Plasmodium falciparum (HB3) proliferation (acoustic dispense); details: P. falciparum HB3 in erythrocytes, SYBR Green, 72 h; at 49.8 µM (top of the series) unless noted
Below, each of the molecules is paired with its reported activity (normalised, proliferation) value.
Give just the number in % [at 23.2 µM]; leave the unit off.

Clc1ccc2c(N3CCN(CCCN4CCN(c5ccnc6cc(Cl)ccc56)CC4)CC3)ccnc2c1: -2.19

Now for a further molecule.
Could you tell me which activity (normalised, proliferation) is on file for CC[C@@]1([C@@H]2O[C@@H]([C@H]3O[C@@](O)(CO)[C@H](C)C[C@H]3C)C[C@H]2C)CC[C@H]([C@]2(C)CC[C@]3(C[C@H](O)[C@@H](C)[C@@H]([C@@H](C)[C@@H](OC)[C@H](C)C(=O)O)O3)O2)O1 ?
1.41
